Consider compounds characterized by their IC50 with Tyrosine-protein phosphatase non-receptor type 6 (Homo sapiens).
Sequence (P29350 whole entry): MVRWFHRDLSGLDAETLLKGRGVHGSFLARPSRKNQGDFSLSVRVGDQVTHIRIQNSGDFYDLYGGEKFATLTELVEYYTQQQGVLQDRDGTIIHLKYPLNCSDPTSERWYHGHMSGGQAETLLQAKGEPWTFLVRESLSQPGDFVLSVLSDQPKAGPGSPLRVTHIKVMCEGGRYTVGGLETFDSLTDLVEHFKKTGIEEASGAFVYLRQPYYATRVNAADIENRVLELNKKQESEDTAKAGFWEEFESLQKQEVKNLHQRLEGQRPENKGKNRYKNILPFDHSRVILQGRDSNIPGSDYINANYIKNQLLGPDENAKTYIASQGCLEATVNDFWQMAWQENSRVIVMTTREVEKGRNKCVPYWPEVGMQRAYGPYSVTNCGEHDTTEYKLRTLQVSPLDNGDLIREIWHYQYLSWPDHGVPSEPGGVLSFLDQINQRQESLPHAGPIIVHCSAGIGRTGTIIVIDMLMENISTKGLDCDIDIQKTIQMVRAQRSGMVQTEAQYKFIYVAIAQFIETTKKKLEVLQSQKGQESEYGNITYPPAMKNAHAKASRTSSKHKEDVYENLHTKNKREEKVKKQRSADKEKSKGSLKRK

{"columns": ["structureAsSmiles", "dataValue"],
 "data": [
  ["CCOC(=O)COC(=O)/C(C)=C\\C(C)=C\\c1csc([C@H](Cc2ccc(OCc3ccccc3)cc2)NC(=O)Cc2c[nH]c3ccccc23)n1", "> 20 µM"],
  ["C/C(=C/C(C)=C/c1csc([C@H](Cc2ccc(OCc3ccccc3)cc2)NC(=O)Cc2c[nH]c3ccccc23)n1)C(=O)OCC(=O)O", "> 20 µM"]
]}

// next item, IC50 requested
The value of IC50 measured for the compound CCOC(=O)COC(=O)/C(C)=C\C(C)=C\c1csc([C@H](Cc2ccc(OCc3ccccc3)cc2)NC(=O)CCc2c[nH]c3ccccc23)n1 turned out to be > 20 µM
